Target: Replicase polyprotein 1ab (Severe acute respiratory syndrome coronavirus 2, UniProt P0DTD1)
Assay: Inhibition of recombinant SARS-CoV-2 3CLpro using Dacyl-KTSAVLQSGFRKME-Edans as substrate preincubated for 10 mins followed by substrate addition measured for 5 mins by FRET assay
pIC50: −log10 of the molar value.
Attribute: pIC50

{"SMILES STR": "CC(C)(F)C(=O)N[C@H](C(=O)N1[C@@H]2CC[C@@H](C2)[C@H]1C(=O)N[C@@H](C[C@@H]1CCNC1=O)C(=O)c1nc2ccccc2s1)C(C)(C)C", "pIC50": 5.90}
{"SMILES STR": "CC(C)(C)[C@H](NC(=O)C(F)(F)F)C(=O)N1[C@@H]2CC[C@@H](C2)[C@H]1C(=O)N[C@@H](C[C@@H]1CCNC1=O)C(=O)c1nc2ccccc2s1", "pIC50": 6.96}
{"SMILES STR": "CC(C)(C)OC[C@H](NS(=O)(=O)C(F)(F)F)C(=O)N1[C@@H]2CC[C@@H](C2)[C@H]1C(=O)N[C@@H](C[C@@H]1CCNC1=O)C(=O)c1nc2ccccc2s1", "pIC50": 5.56}
{"SMILES STR": "CN(C)S(=O)(=O)N[C@H](C(=O)N1[C@@H]2CC[C@@H](C2)[C@H]1C(=O)N[C@@H](C[C@@H]1CCNC1=O)C(=O)c1nc2ccccc2s1)C(C)(C)C", "pIC50": 6.23}
{"SMILES STR": "COc1ccc(C[C@H](NS(=O)(=O)C(F)(F)F)C(=O)N2[C@@H]3CC[C@@H](C3)[C@H]2C(=O)N[C@@H](C[C@@H]2CCNC2=O)C(=O)c2nc3ccccc3s2)cc1", "pIC50": 5.27}
